Record form. Attribute: Biochem EGFR % Inhibition (P.167). Fill in for each entry.
- ASSAY_TARGET: EGFR (Homo sapiens, UniProt P00533)
- Construct: endogenous in cells; host or cells: A431 cells (lysate, captured with SUMO1 anti-EGFR antibody)
- Sequence (P00533 25-1210): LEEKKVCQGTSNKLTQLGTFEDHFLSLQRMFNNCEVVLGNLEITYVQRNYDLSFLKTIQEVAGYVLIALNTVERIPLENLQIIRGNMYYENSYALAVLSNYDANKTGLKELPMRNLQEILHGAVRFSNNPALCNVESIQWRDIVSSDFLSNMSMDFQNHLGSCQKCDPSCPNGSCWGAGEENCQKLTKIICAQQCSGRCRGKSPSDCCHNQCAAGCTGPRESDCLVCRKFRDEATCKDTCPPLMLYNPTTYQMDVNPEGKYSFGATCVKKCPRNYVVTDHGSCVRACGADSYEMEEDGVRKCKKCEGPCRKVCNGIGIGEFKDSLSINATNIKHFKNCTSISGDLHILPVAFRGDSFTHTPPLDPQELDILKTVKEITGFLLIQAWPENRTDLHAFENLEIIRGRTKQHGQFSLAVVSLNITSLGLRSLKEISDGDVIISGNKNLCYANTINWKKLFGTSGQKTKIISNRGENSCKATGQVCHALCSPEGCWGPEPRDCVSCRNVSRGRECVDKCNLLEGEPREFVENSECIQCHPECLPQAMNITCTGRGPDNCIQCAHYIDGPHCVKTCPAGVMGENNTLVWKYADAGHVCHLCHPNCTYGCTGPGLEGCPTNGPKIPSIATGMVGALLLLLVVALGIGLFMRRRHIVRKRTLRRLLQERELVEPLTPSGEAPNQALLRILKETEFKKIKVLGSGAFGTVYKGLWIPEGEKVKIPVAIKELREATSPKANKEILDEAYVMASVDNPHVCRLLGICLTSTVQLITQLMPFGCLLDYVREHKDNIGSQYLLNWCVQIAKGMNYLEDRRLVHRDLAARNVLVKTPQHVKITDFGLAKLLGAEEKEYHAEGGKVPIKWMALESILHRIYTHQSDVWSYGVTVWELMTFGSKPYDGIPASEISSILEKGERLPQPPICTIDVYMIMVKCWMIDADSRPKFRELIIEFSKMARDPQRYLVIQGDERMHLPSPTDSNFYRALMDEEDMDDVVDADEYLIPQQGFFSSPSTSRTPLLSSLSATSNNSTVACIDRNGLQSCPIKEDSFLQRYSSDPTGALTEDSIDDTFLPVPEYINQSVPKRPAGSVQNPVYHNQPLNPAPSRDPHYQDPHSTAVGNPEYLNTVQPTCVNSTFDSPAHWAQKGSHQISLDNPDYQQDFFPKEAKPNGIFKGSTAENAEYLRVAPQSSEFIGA
- ASSAY_DETAILS: Biochemical EGFR Assay
- Set-up: concentration or dose not given beside the values
- SETUP_CONDITIONS: protocol P.167
Just so you know, I need the unit written after the number.

Cc1c(Br)ccc2c1C(=Cc1ccc(O)cc1Cl)C(=O)N2 [10739/C06] = −17.0%
O=C1Nc2c(Br)cc(Br)cc2C1=Cc1ccc2ccccc2n1 [10740/A06] = 13.1%
Cc1ccc(Oc2cccc(C=C3C(=O)Nc4ccc(CCCl)cc43)c2)cc1 [10738/G02] = 19.9%
Cc1c(Br)ccc2c1C(=Cc1cn(C)c3ccccc13)C(=O)N2 [10740/C07] = 5.0%
O=C1Nc2ccc(CCCl)cc2C1=Cc1cccc(Oc2ccc(Cl)c(Cl)c2)c1 [10738/G03] = 31.9%
COc1ccccc1C=C1C(=O)Nc2ccc(I)cc21 [10738/B09] = 20.9%
O=C1Nc2c(Br)cc(Br)cc2C1=Cc1cnc2ccccc2c1 [10740/A02] = −2.4%
O=C1Nc2ccc(S(=O)(=O)Nc3ccc(C(F)(F)F)cc3)cc2C1=Cc1cccc(O)c1O [10738/E06] = 15.8%

Shift focus to the following entry.
Biochem EGFR % Inhibition (P.167) in this record for Cc1c(Br)cc(Br)c2c1C(=Cc1ccnc3ccccc13)C(=O)N2 [10740/H03] : 16.0%

* * *

- ASSAY_TARGET: Met receptor (EGFR/Met chimeric cells, EMR) (Homo sapiens)
- Construct: expressed in transfected cells; the other entry of the earlier key: EGFR (P00533, Epidermal growth factor receptor)
- Sequence (P08581 with tags, fused parts or gaps): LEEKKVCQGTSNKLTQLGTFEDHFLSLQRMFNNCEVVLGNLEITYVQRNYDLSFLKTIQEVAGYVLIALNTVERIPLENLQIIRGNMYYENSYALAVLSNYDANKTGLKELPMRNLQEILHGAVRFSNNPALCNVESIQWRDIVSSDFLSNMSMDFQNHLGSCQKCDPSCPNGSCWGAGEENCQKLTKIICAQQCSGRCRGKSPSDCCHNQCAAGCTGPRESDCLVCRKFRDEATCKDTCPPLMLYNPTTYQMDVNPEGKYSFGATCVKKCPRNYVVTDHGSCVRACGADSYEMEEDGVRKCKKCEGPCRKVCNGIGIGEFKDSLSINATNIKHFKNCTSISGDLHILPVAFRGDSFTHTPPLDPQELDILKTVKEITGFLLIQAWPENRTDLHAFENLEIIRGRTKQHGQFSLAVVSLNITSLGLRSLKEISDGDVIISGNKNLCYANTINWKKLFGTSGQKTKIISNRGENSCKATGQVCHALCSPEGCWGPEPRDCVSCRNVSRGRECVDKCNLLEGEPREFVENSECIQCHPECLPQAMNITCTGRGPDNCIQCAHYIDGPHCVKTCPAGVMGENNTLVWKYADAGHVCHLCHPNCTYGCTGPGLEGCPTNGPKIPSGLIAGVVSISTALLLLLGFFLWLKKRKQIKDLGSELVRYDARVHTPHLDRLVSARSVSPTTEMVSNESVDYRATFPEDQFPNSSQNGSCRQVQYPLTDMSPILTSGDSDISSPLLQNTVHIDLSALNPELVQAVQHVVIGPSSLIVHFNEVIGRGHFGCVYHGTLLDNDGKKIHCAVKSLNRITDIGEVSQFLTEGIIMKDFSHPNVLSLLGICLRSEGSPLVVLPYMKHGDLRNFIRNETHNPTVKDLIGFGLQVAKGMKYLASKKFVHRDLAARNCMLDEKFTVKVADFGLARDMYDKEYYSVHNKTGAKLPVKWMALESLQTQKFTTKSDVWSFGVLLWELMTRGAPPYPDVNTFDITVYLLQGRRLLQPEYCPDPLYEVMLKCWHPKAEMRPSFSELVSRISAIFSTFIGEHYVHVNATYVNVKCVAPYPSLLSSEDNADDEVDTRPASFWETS
- ASSAY_DETAILS: Met Autophosphorylation Assay
- Format: biochemical
- SETUP_CONDITIONS: protocol P.130
Record form. Attribute: Met Kinase % Inhibition (P.130). Fill in for each entry.
Numbers only, in %.

Completed entries (count: 6):
COc1ccc(Oc2cccc(C=C3C(=O)Nc4c(Br)cc(Br)c(C)c43)c2)cc1 = 22.9
Cc1c(Br)cc(Br)c2c1C(=Cc1cccc(OCc3ccccc3)c1)C(=O)N2 = 10.4
O=C1Nc2ccc(I)cc2C1=Cc1cccc(Oc2cccc(C(F)(F)F)c2)c1 = 78.8
Cn1cc(C=C2C(=O)Nc3ccc(CCCl)cc32)c2ccccc21 = 10.8
CNS(=O)(=O)c1ccc2c(c1)C(=Cc1cc(O)cc(O)c1)C(=O)N2 = 68.3
Cc1c(Br)ccc2c1C(=Cc1ccc(OCCCN(C)C)cc1)C(=O)N2 = 76.3

Batch of 2 compounds: report Met Kinase % Inhibition (P.130) for each.
1. CNS(=O)(=O)c1ccc2c(c1)C(=Cc1ccc(C(C)C)cc1)C(=O)N2
2. CN(C)CCCOc1ccc(C=C2C(=O)Nc3ccc(S(=O)(=O)Nc4ccc(C(F)(F)F)cc4)cc32)cc1

1. 25.3
2. 33.8

* * *

Record form. Attribute: Flk Kinase % Inhibition (P.110). Fill in for each entry.
- Tested on: FLK-1 receptor
- ASSAY_DETAILS: FLK-1 Assay (cellular/catalytic ELISA, VEGF-stimulated phosphotyrosine)
- Assay type: cell-based
- Design: concentration or dose not given beside the values
Answers are plain numbers, in %.

Completed entries (count: 10):
O=C1Nc2c(Br)cc(Br)cc2C1=Cc1ccc(Br)s1 = 6.3
Cc1c(Br)cc(Br)c2c1C(=Cc1ccccc1)C(=O)N2 = 22.3
Cc1ccc(C=C2C(=O)Nc3ccc(S(=O)(=O)N4CCOCC4)cc32)cc1 = 15.1
CCOc1ccc(C=C2C(=O)Nc3c(Br)cc(Br)c(C)c32)cc1OC = 22.0
CC(C)(C)c1ccc(C=C2C(=O)Nc3ccc(S(=O)(=O)N4CCOCC4)cc32)cc1 = 14.8
O=C1Nc2ccc(S(=O)(=O)N3CCOCC3)cc2C1=Cc1c(F)cccc1F = 10.7
CCOc1cc(C=C2C(=O)Nc3c(Br)cc(Br)c(C)c32)ccc1O = −4.5
Cc1cc(C=C2C(=O)Nc3c(Br)cc(Br)c(C)c32)cc(C(C)(C)C)c1O = 2.5
CC(C)(C)c1ccc(C=C2C(=O)Nc3c(Br)cc(Br)cc32)cc1 = 4.4
Cc1c(Br)cc(Br)c2c1C(=Cc1ccc(-c3ccccc3Cl)o1)C(=O)N2 = 19.0

Batch of 2 compounds: report Flk Kinase % Inhibition (P.110) for each.
1. Cc1c(Br)cc(Br)c2c1C(=Cc1ccc([N+](=O)[O-])s1)C(=O)N2
2. Cc1c(Br)cc(Br)c2c1C(=Cc1ccc(N3CCCC3)cc1)C(=O)N2

1. 3.8
2. 5.3

Batch of 2 compounds: report Flk Kinase % Inhibition (P.110) for each.
1. Cc1c(Br)cc(Br)c2c1C(=Cc1cc(C(C)(C)C)c(O)c(C(C)(C)C)c1)C(=O)N2
2. Cc1cccc(C=C2C(=O)Nc3ccc(S(=O)(=O)N4CCOCC4)cc32)c1

−6.0
16.5

* * *

- ASSAY_TARGET: Met receptor (EGFR/Met chimeric cells, EMR) (Homo sapiens)
- Construct: expressed in transfected cells; the other entry of the earlier key: EGFR (P00533, Epidermal growth factor receptor)
- ASSAY_DETAILS: Met Autophosphorylation Assay
- Format: biochemical
Each record is given true if its reported Met Kinase % Inhibition (P.130) is strictly below 20%. Records at or above 20% are given false.

The examples below pair each entry with its known result.
Cc1ccccc1C=C1C(=O)Nc2ccc(S(=O)(=O)Nc3ccc(C(F)(F)F)cc3)cc21 = true
Cc1c(Br)cc(Br)c2c1C(=Cc1ccc(O)c(O)c1O)C(=O)N2 = false
O=C1Nc2c(Br)cc(Br)cc2C1=Cc1cc(Cl)ccc1O = false

Now let's try a different one.
Please indicate whether the reported Met Kinase % Inhibition (P.130) of `O=C1Nc2ccc(CCCl)cc2C1=Cc1cccc(C(F)(F)F)c1` is strictly below 20%.
false

* * *

- ASSAY_TARGET: Met receptor (EGFR/Met chimeric cells, EMR) (Homo sapiens)
- Construct: expressed in transfected cells; the other entry of the earlier key: EGFR (P00533, Epidermal growth factor receptor)
- ASSAY_DETAILS: Met Autophosphorylation Assay
- Type: biochemical
- SETUP_CONDITIONS: protocol P.130
REPORTED_PROPERTY: Met Kinase % Inhibition (P.130) (%)
Answers are plain numbers, in %.

O=C1Nc2ccc(S(=O)(=O)N3CCOCC3)cc2C1=Cc1cc(Br)cs1 [10740/F10] = 58.3
CCc1ccc(C=C2C(=O)Nc3c(Br)cc(Br)c(C)c32)cc1 [10736/H09] = 32.1
O=C1Nc2c(Br)cc(Br)cc2C1=Cc1cnc2ccccc2c1 [10740/A02] = 56.3
Cc1ccc(C)c(C=C2C(=O)Nc3ccc(S(=O)(=O)Nc4ccc(C(F)(F)F)cc4)cc32)c1 [10737/E07] = 43.1

Batch of 3 molecules: report Met Kinase % Inhibition (P.130) for each.
1. Cc1ccc(C)c(C=C2C(=O)Nc3ccc(S(=O)(=O)N4CCOCC4)cc32)c1 [10737/F07]
2. Cc1c(Br)cc(Br)c2c1C(=Cc1ccnc3ccccc13)C(=O)N2 [10740/H03]
3. O=C1Nc2ccc(CCCl)cc2C1=Cc1ccc(CO)o1 [10739/G11]

33.3
17.5
56.7

Met Kinase % Inhibition (P.130) of O=C1Nc2ccc(S(=O)(=O)Nc3ccc(C(F)(F)F)cc3)cc2C1=Cc1ccc(O)cc1Cl [10739/E06] , assay on Met receptor (EGFR/Met chimeric cells, EMR) (Homo sapiens), is 66.3

* * *

- ASSAY_TARGET: EGFR (Homo sapiens)
- Construct: endogenous in cells; host or cells: A431 cells (lysate, captured with SUMO1 anti-EGFR antibody)
- ASSAY_DETAILS: Biochemical EGFR Assay
- Set-up: concentration or dose not given beside the values
- SETUP_CONDITIONS: protocol P.167
Each record is given label 1 if its reported Biochem EGFR % Inhibition (P.167) is strictly below 10%. Records at or above 10% are given label 0.

The examples below pair each entry with its known result.
CC(C)c1ccc(C=C2C(=O)Nc3ccc(CCCl)cc32)cc1 [10738/G10] = label 0
COc1ccccc1C=C1C(=O)Nc2ccc(CCCl)cc21 [10738/G09] = label 0
COC1CCCN1C=C1C(=O)Nc2ccc(S(=O)(=O)N3CCOCC3)cc21 (stereo not drawn) [10740/F04] = label 0
CN(C)CCCOc1ccc(C=C2C(=O)Nc3c(Br)cc(Br)cc32)cc1 [10739/A09] = label 0

Please indicate whether the reported Biochem EGFR % Inhibition (P.167) of CCCOc1ccc(C=C2C(=O)Nc3ccc(Br)c(C)c32)cc1 [10738/C11] is strictly below 10%.
label 1

Please indicate whether the reported Biochem EGFR % Inhibition (P.167) of COc1ccc(Oc2cccc(C=C3C(=O)Nc4c(Br)cc(Br)cc43)c2)cc1 [10739/A08] is strictly below 10%.
label 1

Please indicate whether the reported Biochem EGFR % Inhibition (P.167) of COc1ccc(Oc2cccc(C=C3C(=O)Nc4ccc(Br)c(C)c43)c2)cc1 [10739/C08] is strictly below 10%.
label 1

Please indicate whether the reported Biochem EGFR % Inhibition (P.167) of Cc1c(Br)ccc2c1C(=Cc1ccnc3ccccc13)C(=O)N2 [10740/C03] is strictly below 10%.
label 1

Please indicate whether the reported Biochem EGFR % Inhibition (P.167) of O=C1Nc2ccc(S(=O)(=O)N3CCOCC3)cc2C1=Cc1ccc(O)cc1Cl [10739/F06] is strictly below 10%.
label 1
